# ASSAY TEXT: Selectivity index, ratio of IC50 for human WI38 cells to IC50 for mouse NFS60 cells
PROPERTY NAME: Ratio IC50
# output: bare number, no unit

According to the records, this compound `O=C(OC1(C(=O)Nc2ccc([N+](=O)[O-])cc2)CCCCC1)c1ccc(Br)cc1` displays Ratio IC50 of 2.216

Ratio IC50 recorded for this compound, `O=C(OC1(C(=O)Nc2ccc([N+](=O)[O-])cc2)CCCCC1)c1ccc(Cl)cc1` , is 34.466

Looking up `CC(=O)OC1(C(=O)Nc2ccc([N+](=O)[O-])cc2)CCCCC1` , I found its Ratio IC50 recorded as 0.746

Reported Ratio IC50 of `O=C(OC1(C(=O)Nc2ccc([N+](=O)[O-])cc2)C(=O)c2ccccc2C1=O)c1ccc(C(F)(F)F)cc1` : 4.057

Item: `O=COC1(C(=O)Nc2ccc([N+](=O)[O-])cc2)CCCCC1` | Ratio IC50: 1.369

The recorded Ratio IC50 for `COC1(Nc2ccc([N+](=O)[O-])cc2)C(=O)c2ccccc2C1=O` is 1.637

Summary for this compound, `O=C(OC1(C(=O)Nc2ccc([N+](=O)[O-])cc2)CCCCC1)c1ccc([N+](=O)[O-])cc1` : Ratio IC50 is 98.831

Noted for `COc1ccc(C(=O)OC2(C(=O)Nc3ccc([N+](=O)[O-])cc3)CCCCC2)cc1` : its Ratio IC50 reads 1.031

Record O=C(OC1(C(=O)Nc2ccc([N+](=O)[O-])cc2)CCCCC1)C(O)c1ccccc1 (configuration not stated) , field Ratio IC50: 10.82

According to the records, this compound `O=C(Nc1ccc([N+](=O)[O-])cc1)C1(O)CCCCC1` displays Ratio IC50 of 1.705

The reported Ratio IC50 of the compound `O=C(OC1(C(=O)Nc2ccc([N+](=O)[O-])cc2)CCCCC1)c1ccccc1[N+](=O)[O-]` was 1.84

Sure, the documented Ratio IC50 for `CC(=O)Oc1ccccc1C(=O)OC1(C(=O)Nc2ccc([N+](=O)[O-])cc2)CCCCC1` is 4.283

* * *

# ASSAY TEXT: Selectivity index, ratio of IC50 for human WI38 cells to IC50 for human MCF7 cells
# Type: toxicity
# EXPERIMENTAL PARAMETERS: WI38 cells versus MCF7 cells, read-out: Ratio IC50
PROPERTY NAME: selectivity ratio
Give the figure only, with no unit attached.

selectivity ratio measured on `CCOC1(Nc2ccc([N+](=O)[O-])cc2)C(=O)c2ccccc2C1=O` = 1.35

Form: molecule = O=C(OC1(C(=O)Nc2ccc([N+](=O)[O-])cc2)CCCCC1)C(O)c1ccccc1 (stereo not given) ; selectivity ratio = 16.8

get_value(item= `Cc1ccc(C(=O)OC2(C(=O)Nc3ccc([N+](=O)[O-])cc3)CCCCC2)cc1` , readout=selectivity ratio) returns 3.27

Looking up `CC(=O)OC1(C(=O)Nc2ccc([N+](=O)[O-])cc2)CCCCC1` , I found its selectivity ratio recorded as 0.957

Note to self: selectivity ratio recorded for `O=C(OC1(C(=O)Nc2ccc([N+](=O)[O-])cc2)CCCCC1)c1ccccc1I` was 0.639

* * *

Assignment: determine reported IC50 for the given compounds.
# Test system: NFS-60
# ASSAY TEXT: Cytotoxicity against mouse NFS60 cells assessed as cell growth inhibition incubated for 72 hrs by MTT assay
# Format: functional, cell-based
# EXPERIMENTAL PARAMETERS: NFS-60, 72 h
Number in nM, nothing else.

Reported IC50 ( `CCOC(=O)c1ccccc1C(=O)OC1(C(=O)Nc2ccc([N+](=O)[O-])cc2)CCCCC1` ) = 488

Briefly, IC50 measured for `COc1cccc2c1C(=O)c1c(O)c3c(c(O)c1C2=O)C[C@@](O)(C(=O)CO)C[C@@H]3O[C@H]1C[C@H](N)[C@H](O)[C@H](C)O1` : 13

The value of IC50 measured for the compound `O=C1OC2(CCCCC2)C(=O)N1c1ccc([N+](=O)[O-])cc1` turned out to be 8.98

// `CC1(C)CC(=O)C=C(Nc2ccc([N+](=O)[O-])cc2)C1` : IC50 value = 645

* * *

# System: Enterococcus faecalis
# ASSAY TEXT: Antimicrobial activity against Enterococcus faecalis ATCC 29212 incubated for 24 hrs by agar well diffusion assay
# Assay type: functional
Active and inactive are the calls of the source. No cut-off for these calls is given here.
PROPERTY NAME: diameter of the inhibition zone (DIZ)

Recorded results for 6 compounds are shown here.
| COMPOUND | PROPERTY NAME | VALUE MEASURED |
| --- | --- | --- |
| CCOC1(Nc2ccc([N+](=O)[O-])cc2)C(=O)c2ccccc2C1=O | diameter of the inhibition zone (DIZ) | 13 mm |
| O=C(/C=C/c1ccccc1)OC1(C(=O)Nc2ccc([N+](=O)[O-])cc2)CCCCC1 | diameter of the inhibition zone (DIZ) | inactive |
| O=C(Nc1ccc([N+](=O)[O-])cc1)C1(O)CCCCC1 | diameter of the inhibition zone (DIZ) | inactive |
| COC1(Nc2ccc([N+](=O)[O-])cc2)C(=O)c2ccccc2C1=O | diameter of the inhibition zone (DIZ) | inactive |
| O=C(OC1(C(=O)Nc2ccc([N+](=O)[O-])cc2)CCCCC1)C(O)c1ccccc1 (stereo not given) | diameter of the inhibition zone (DIZ) | inactive |
| O=C(OC1(C(=O)Nc2ccc([N+](=O)[O-])cc2)CCCCC1)c1ccc(Cl)cc1 | diameter of the inhibition zone (DIZ) | 13 mm |

// sample `O=C(OC1(C(=O)Nc2ccc([N+](=O)[O-])cc2)CCCCC1)c1ccc(C(F)(F)F)cc1` , its diameter of the inhibition zone (DIZ) was inactive

Per the record, `O=C(Cc1ccccc1)OC1(C(=O)Nc2ccc([N+](=O)[O-])cc2)CCCCC1` has diameter of the inhibition zone (DIZ) of inactive

The compound listed as `O=C(OC1(C(=O)Nc2ccc([N+](=O)[O-])cc2)CCCCC1)c1ccccc1[N+](=O)[O-]` has a reported diameter of the inhibition zone (DIZ) of inactive

Lookup result for `O=C1OC2(CCCCC2)C(=O)N1c1ccc([N+](=O)[O-])cc1` ; measured diameter of the inhibition zone (DIZ): inactive

* * *

# System: MCF7
# ASSAY TEXT: Induction of apoptosis in human MCF7 cells assessed as late apoptotic cells level at IC50 incubated for 72 hrs by annexin V/propidium iodide staining based flow cytometry (reference value: 0.01%)
# Format: functional
PROPERTY NAME: Activity
Give me the value, and tack the unit on after it.

// sample `O=C(Cc1ccccc1)OC1(C(=O)Nc2ccc([N+](=O)[O-])cc2)CCCCC1` , its Activity was 20.57%

get_value(item= `O=C(OC1(C(=O)Nc2ccc([N+](=O)[O-])cc2)CCCCC1)c1ccc([N+](=O)[O-])cc1` , readout=Activity) returns 18.31%

Value of Activity reported for the compound `COc1cccc2c1C(=O)c1c(O)c3c(c(O)c1C2=O)C[C@@](O)(C(=O)CO)C[C@@H]3O[C@H]1C[C@H](N)[C@H](O)[C@H](C)O1` is 18.78%

The value of Activity measured for the compound O=C(OC1(C(=O)Nc2ccc([N+](=O)[O-])cc2)CCCCC1)C(O)c1ccccc1 (centres undefined) turned out to be 28.9%

* * *

# ASSAY TEXT: Selectivity index, ratio of IC50 for human WI38 cells to IC50 for human HepG2 cells
# Type: toxicity
# EXPERIMENTAL PARAMETERS: WI38 cells versus HepG2 cells, read-out: Ratio IC50
PROPERTY NAME: selectivity ratio
Answer with a bare number; do not write a unit.

# compound `O=COC1(C(=O)Nc2ccc([N+](=O)[O-])cc2)CCCCC1` ; its selectivity ratio = 1.36

Given item `CCOC1(Nc2ccc([N+](=O)[O-])cc2)C(=O)c2ccccc2C1=O` , the value recorded as its selectivity ratio is 1.21

The recorded selectivity ratio for `O=C1OC2(CCCCC2)C(=O)N1c1ccc([N+](=O)[O-])cc1` is 3.72

# selectivity ratio of `COc1ccc(C(=O)OC2(C(=O)Nc3ccc([N+](=O)[O-])cc3)CCCCC2)cc1` = 0.7

Notebook: `COC1(Nc2ccc([N+](=O)[O-])cc2)C(=O)c2ccccc2C1=O` , selectivity ratio read as 1.49

Documented selectivity ratio of `O=C(OC1(C(=O)Nc2ccc([N+](=O)[O-])cc2)CCCCC1)c1ccc(Cl)cc1` : 16.3

# selectivity ratio (compound: `CC(=O)Oc1ccccc1C(=O)OC1(C(=O)Nc2ccc([N+](=O)[O-])cc2)CCCCC1` ) is 2.73

Lookup result for O=C(OC1(C(=O)Nc2ccc([N+](=O)[O-])cc2)CCCCC1)C(O)c1ccccc1 (stereo not drawn) ; measured selectivity ratio: 11
